Give inhibition for every item shown.
Test system: HIV-1 gp120 / PG9 antibody interaction
Test: binders of HIV-1 gp120 antibody PG9, primary screen, biochemical, TR-FRET (AID 624416)
Details: TR-FRET gp120-PG9 antibody binding; at 6.7 µM; stronger effect = higher value
Screen size: about 360,000 compounds; about 1,500 (0.42%) were called active. The entries come from a sample that favours actives as a whole.
Write it as a number; the unit % goes unstated.

Returns the measured inhibition for the input compound. Input: COc1ccc(-n2nc3c(c2NC(=O)c2ccc(N4C(=O)CCC4=O)cc2)CSC3)cc1
0.18

Then this compound: COc1ccc(-c2csc(NC(=O)c3ccc(N4C(=O)CCC4=O)cc3)n2)cc1OC
8.78

Then this compound: CCCCCCCCN1C(=O)[C@@H](CC(=O)NCc2ccccc2)C[C@@]2(C(=O)OC)C1=C[C@H](C(C)(C)C)O[C@@H]2C
-0.73

Then this compound: COCCNc1nc(Nc2ccccc2Cl)c2sc(-c3ccccc3)cc2n1
1.58

Then this compound: CC(=O)Nc1ccc(Nc2nc3c(S(=O)(=O)c4ccc(C)c(C)c4)nnn3c3ccccc23)cc1
1.78

Then this compound: COC(=O)C1=CN(Cc2ccc(OC)cc2)C=C(C(=O)OC)C1c1ccc(O)c(OC)c1
-1.15

Then this compound: N#CC1=C(N)Oc2[nH]c(=S)[nH]c(=O)c2C12C(=O)Nc1ccccc12 (configuration not stated)
-2.89

Then this compound: COc1cc(NC(=O)c2ccc(-c3csc(C)n3)cc2)c(OC)cc1Cl
-0.71

Then this compound: CCCc1nc(SCC(=O)Nc2ccc(S(=O)(=O)N(C)C)cc2)c2ccccc2n1
27

Then this compound: CCCCCCCCN1C(=O)[C@@H](CC(=O)N2CCN(C(=O)OCC)CC2)C[C@@]2(C(=O)OC)C1=C[C@H](C1CCCC1)O[C@@H]2C
-1.72

Then this compound: COC(=O)[C@]12C[C@H](CC(=O)N3CCN(C(=O)C4CC4)CC3)C(=O)N(Cc3ccc4c(c3)OCO4)C1=C[C@H](C(C)(C)C)O[C@@H]2C
-1.36

Then this compound: O=C(NCc1ccccc1)[C@H]1CCCN1C(=O)[C@H]1CCCN1C(=O)c1cc(F)cc(F)c1
-2.57

----------
Tested on: HIV-1 gp120 / PG9 antibody interaction
Experiment: binders of HIV-1 gp120 antibody PG9, primary screen, biochemical, TR-FRET (AID 624416)
Conditions: TR-FRET gp120-PG9 antibody binding; at 6.7 µM
The whole screen tested about 360,000 compounds, of which about 1,500 (0.42%) were called active. Rule as the data show it: active = inhibition above about 8.5%; inactive = the rest. For the sample, actives were picked, then their nearest neighbours and some compounds at random.
Log the outcome using a class from y (active), n (inactive)

Hey, what did the test say about C=CCn1c(=NC(=O)c2ccc(S(=O)(=O)N3CCCC3)cc2)sc2cc(NC(C)=O)ccc21 ?
y

Then this compound: C[C@@H](CN1C2=NC[C@@H](Cc3ccccc3)N2C[C@H]1Cc1ccc(O)cc1)NC(=O)CCC1CCCCC1
n

Then this compound: CSc1nnc(SCc2nc3sc(C(=O)O)c(C)c3c(=O)[nH]2)s1
n

Then this compound: C=CCn1c(SCC(=O)Nc2ccc(NC(C)=O)cc2)nc2sc(C)c(C)c2c1=O
n

Then this compound: COC(=O)C(C(=O)OC)c1ccccc1NS(=O)(=O)c1cccc2ccccc12
n

Then this compound: O=c1[nH]c(-c2ccccc2)cn1C1CCN(Cc2ccc(-c3nc4ccc(F)cc4nc3-c3ccccc3)cc2)CC1
n

Then this compound: CCn1c(SCC(=O)Nc2cccc(F)c2)nnc1-c1cc2cc(Br)ccc2o1
y

Then this compound: Nc1[nH]c(C(=O)c2ccccc2)c(-c2ccc(Cl)cc2Cl)c1C(=O)c1ccccc1
n

Then this compound: O=C(NCCc1ccccn1)c1ccc(COc2ccccc2)o1
n

Then this compound: COCCNC(=O)c1cc2c(Br)ccc(Br)c2nc1N
y

Then this compound: COc1ccc(-c2ccccc2C2Cc3nnccc3CN2C(=O)Nc2ccccc2)cc1 (stereo not given)
n

Then this compound: CCn1c(CNC(=O)c2ccco2)nnc1SCC(=O)Nc1cccc(F)c1
n

Then this compound: Nc1ncnc2c1ncn2[C@@H]1O[C@H](C(=O)N[C@@H](CCc2ccccc2)C(=O)N2CCCN(Cc3cccs3)CC2)[C@@H](O)[C@H]1O
n

Then this compound: O=C(CN1CCCCCC1)Nc1ccc(S(=O)(=O)N2CCCCC2)cc1
n

Then this compound: Nc1nc2c(Br)ccc(Br)c2cc1C(=O)NCCc1ccccc1
n

Then this compound: Cn1c(SCC(=O)Nc2ccc(Br)cc2F)nnc1-c1ccco1
n

Then this compound: CC(=O)Nc1ccc(S(=O)(=O)N2CCN(S(=O)(=O)c3cccs3)CC2)cc1
n

Then this compound: COC(=O)Cc1nnn2c1[C@H](C)[C@H](c1ccccc1[N+](=O)[O-])OCC2
n

Then this compound: C[C@H](CO)N1C[C@H](C)[C@@H](CN(C)C(=O)Nc2ccccc2F)OCc2cn(nn2)CCCC1=O
n

Then this compound: CN[C@H]1C[C@H]2c3[nH]c4c(-c5ccccc5)cccc4c3CCN2C(=O)[C@H]1[C@H](C)O
n

FYI, the data here is from PubChem BioAssay AID624416.
